# Test system: KM20L2 colon
# procedure-summary: NCI tumour cell line growth inhibition, 48 h
TGI overview

Recorded results for 3 compounds are shown here.
structure-string	TGI
O=C(c1ccco1)N(C(=S)N1CCN(c2ccccc2)CC1)c1ccccc1	> 100 µM
O=C(O)c1[nH]c(C(=O)O)c(CC(F)(F)C(F)(F)C(F)(F)F)c1CC(F)(F)C(F)(F)C(F)(F)F	> 100 µM
CC(C)(C)C([O-])=C1C(=O)c2ccccc2C1=O.CC(C)(C)C([O-])=C1C(=O)c2ccccc2C1=O.CC[O-].CC[O-].[Ti+4]	> 100 µM

Pending compound:
Notebook: pull reported TGI for KM20L2 colon, entry CC(C)(C)N=CN1CCC(C(c2ccccc2)c2ccccc2)CC1
32.2 µM

###

# System: NCI-H522 lung
# procedure-summary: NCI tumour cell line growth inhibition, 48 h
TGI overview

Recorded results for 4 compounds are shown here.
compound	TGI
CCOC(=O)C(=O)Nc1c(C)cccc1CC	> 100 µM
CCN1C/C(=C\c2ccc(Cl)cc2)C2=NN(c3ccccc3)C(c3ccc(Cl)cc3)C2C1 (stereo not given)	> 100 µM
CC1(C)C(=O)/C(=C\c2ccco2)C[C@]2(C)[C@H]3CC=C4[C@@H]5C[C@](C)(C(=O)O)CC[C@]5(C)CC[C@@]4(C)[C@]3(C)CC[C@@H]12	25.6 µM
CCC(=O)N1C/C(=C/c2ccc(OC)cc2)C(=O)/C(=C/c2ccc(OC)cc2)C1	3.86 µM

Pending compound:
Tell me the measured TGI of O=c1c(OC/C(=N/O)c2ccccc2)c(-c2ccccc2)oc2ccccc12 , please.
> 50 µM

###

# Test system: NCI/ADR-RES ovarian
# procedure-summary: NCI tumour cell line growth inhibition, 48 h
measured-parameter: TGI (µM)
The reply should contain only the number, in µM.

compound	unit-symbol	value-observed
CCN(CC)CC(C)Nc1ccc(C)c2sc3ccccc3c(=O)c12 (stereo not given)	µM	18.7

Tell me the measured TGI of O=C1/C(=C/c2cccs2)N=C(c2ccccc2)N1C1Nc2cc3c(cc2S1)NC(N1C(=O)/C(=C/c2cccs2)N=C1c1ccccc1)S3 (stereo not given) , please.
33.6

Tell me the measured TGI of CCOC(=O)/C=C(/C(=O)OCC)n1cc(C)c(=O)n(Cc2cnnn2CCCCOC(C)=O)c1=O , please.
69.3

Tell me the measured TGI of N#CC1C(N)=NNC1c1ccc(-c2ccc(-c3nc4ccccc4o3)cc2)o1 (stereo not given) , please.
75.6

###

# Tested on: RXF 393 renal
# procedure-summary: NCI tumour cell line growth inhibition, 48 h
measured-parameter: TGI (µM)
The reply should contain only the number, in µM.

molecule	unit-symbol	value-observed
O=C1c2cccc3cc([N+](=O)[O-])cc(c23)C(=O)N1CCCN1CCN(CCCN2C(=O)c3cccc4cc([N+](=O)[O-])cc(c34)C2=O)CC1	µM	1.76
CCOC(=O)/C(C1=CC(=O)C(=O)c2ccccc21)=C(/C)NCc1ccccc1	µM	1.73
CC(C)(C)N=CN1CCC(C(c2ccccc2)c2ccccc2)CC1	µM	98.7
COc1cc2c(cc1OCCCC(=O)Nc1cc(C(=O)Nc3cc(C(=O)NCCCN(C)C)n(C)n3)n(C)n1)N=CC1CCCN1C2=O (centres undefined)	µM	33.6
COc1cc(C(C#N)NNC(=O)c2ccccc2O)ccc1O (centres undefined)	µM	6.3
COC(=O)c1c(O)ccc2c1c1c(n2C)C(=O)c2ccccc2C1=O	µM	42
COc1ccc2nc3c([N+](=O)[O-])ccc4c3c(c2c1)NCCN4C	µM	0.878
CCN(CC)C(=S)SSC1CCCCC1	µM	31.2
Cc1ccc(-c2cc3nc(-c4ccccc4)nc(C(Cl)Cl)n3n2)cc1	µM	1.88
CCc1ccc(C2=C(O)C(=O)C(c3ccc(CC)cc3)=C(O)C2=O)cc1	µM	12.8

Tell me the measured TGI of Cc1ccc(S(=O)(=O)NCCN2c3nc4ccccc4cc3Sc3cc4ccccc4nc32)cc1 , please.
66.3

###

# System: MDA-MB-231 breast
measured-parameter: GI50

structure-string	target	GI50
CC1(C)C(=O)/C(=C\c2ccco2)C[C@]2(C)[C@H]3CC=C4[C@@H]5C[C@](C)(C(=O)O)CC[C@]5(C)CC[C@@]4(C)[C@]3(C)CC[C@@H]12	MDA-MB-231 breast	14.1 µM

Notebook: pull reported GI50 for MDA-MB-231 breast, entry O=C(N/N=C/c1ccc(F)cc1)c1[nH]c2ccc(I)cc2c1-c1ccccc1
1.34 µM

Notebook: pull reported GI50 for MDA-MB-231 breast, entry Cc1cc(O)cc(C)c1/C=C/c1cncc(C(=O)N(C)C)c1
> 25 µM

Notebook: pull reported GI50 for MDA-MB-231 breast, entry NC(N)=N/N=C/c1c(-c2cc(Cl)sc2Cl)nc2n1CCS2
7.64 µM

Notebook: pull reported GI50 for MDA-MB-231 breast, entry COc1ccc(-c2cn3ccnc3c(-c3ccc4ncn(C5CCCCC5)c4c3)n2)cc1
2.83 µM

Notebook: pull reported GI50 for MDA-MB-231 breast, entry O=[N+]([O-])/C=C\c1ccc2c(c1)OCO2
12.1 µM

Notebook: pull reported GI50 for MDA-MB-231 breast, entry CCN(CC)C(=S)SSC1CCCCC1
17.3 µM

Notebook: pull reported GI50 for MDA-MB-231 breast, entry CC/C=C\C[C@H](O)C/C=C1/C(=O)C=C[C@@H]1C/C=C\CCCC(N)=O
4.2 µM

Notebook: pull reported GI50 for MDA-MB-231 breast, entry O=c1c(OC/C(=N/O)c2ccccc2)c(-c2ccccc2)oc2ccccc12
9.39 µM

Notebook: pull reported GI50 for MDA-MB-231 breast, entry C=C1C(=O)O[C@H]2[C@H]1CC/C(COC(=O)c1ccc(C(=O)O)s1)=C\CC[C@@]1(C)O[C@@H]21
1.6 µM

###

# System: KM12 colon
# procedure-summary: NCI tumour cell line growth inhibition, 48 h
Lab note: anything with TGI at or over 30 µM counts as satisfied; the rest go in not satisfied.

Before answering, review these 5 worked examples.
compound	target	category-label
CCC(=O)N1C/C(=C/c2ccc(OC)cc2)C(=O)/C(=C/c2ccc(OC)cc2)C1	KM12 colon	not satisfied
O=C1C=C(c2cc(Br)c(O)c(Br)c2)/C(=C/c2cc(Br)c(O)c(Br)c2)O1	KM12 colon	satisfied
NCCCCCCNc1cc(-c2cccc(OC(F)(F)F)c2)nc2ccc(N3CCCC3)cc12	KM12 colon	not satisfied
O=C1/C(=C/c2cccs2)N=C(c2ccccc2)N1C1Nc2cc3c(cc2S1)NC(N1C(=O)/C(=C/c2cccs2)N=C1c1ccccc1)S3 (stereo not given)	KM12 colon	satisfied
CCn1c2c(c3c(C(=O)OC)c(O)ccc31)C(=O)c1ccccc1C2=O	KM12 colon	satisfied

Exam item: decide whether the reported TGI for c1ccc(N=NNNc2ccc(-c3nc4ccccc4[nH]3)cc2)cc1 is at least 30 µM.
satisfied

Exam item: decide whether the reported TGI for CN(C)Cc1cc(C(=O)O)cc(CN(C)C)c1O is at least 30 µM.
satisfied

###

# Test system: OVCAR-8 ovarian
# procedure-summary: NCI tumour cell line growth inhibition, 48 h
Lab note: anything with TGI at or over 20 µM counts as Yes; the rest go in No.

Before answering, review these 10 worked examples.
compound	category-label
O=S(=O)(O)c1ccc2cc(N=Nc3cc(S(=O)(=O)O)c4cccnc4c3O)ccc2c1	Yes
O=C1Cc2c(-c3ccccc3)cc(-c3cccc(Cl)c3)nc2-c2ccccc2N1	No
O=[N+]([O-])C(=C(NCc1ccccc1)NCc1ccccc1)C(Cl)=C(Cl)Cl	Yes
Cc1ccc(-n2c(C)nc3c2C(=O)c2ccccc2C3=O)cc1	Yes
O=C1C=C(c2cc(Br)c(O)c(Br)c2)/C(=C/c2cc(Br)c(O)c(Br)c2)O1	Yes
C=C(Br)CN(C#N)CC(=C)Br	Yes
NC(N)=N/N=C/c1c(-c2cc(Cl)sc2Cl)nc2n1CCS2	Yes
Cc1ccc(N2C(=O)C(Cl)=C(Nc3cccc(O)c3)C2=O)cc1Cl	Yes
Cn1c(N/N=C/c2ccc(Cl)cc2)nc(-c2ccc(Cl)cc2)c(C#N)c1=O	Yes
CCCCc1cc(O)ccc1O	Yes

Now look at this entry.
Exam item: decide whether the reported TGI for O=C1CC(O)c2c(Cl)sc(Cl)c21 (stereo unspecified) is at least 20 µM.
No

###

# System: NCI-H460 lung
# procedure-summary: NCI tumour cell line growth inhibition, 48 h
TGI overview

Recorded results for 3 molecules are shown here.
molecule	target	TGI
CCCCCC(C)C[C@H]1CO[C@H](c2ccc[nH]2)N[C@H]1C(=O)OC (stereo partly specified)	NCI-H460 lung	> 100 µM
Cc1nc2ccccc2n1CCc1nc2ccccc2s1	NCI-H460 lung	> 100 µM
CC1=Nn2c(nc3sc4c(c3c2=O)CCCC4)SC1	NCI-H460 lung	> 100 µM

Tell me the measured TGI of COC(=O)c1ccc(OCc2ccc3oc(=O)c(-c4ccccc4)nc3c2)cc1 , please.
> 100 µM

Tell me the measured TGI of CC(SC1=CC(=O)c2c(O)ccc(O)c2C1=O)C(=O)O (stereo unspecified) , please.
> 100 µM

Tell me the measured TGI of COc1ccc2c(C3(O)CCNCC3)c[nH]c2c1 , please.
> 100 µM

Tell me the measured TGI of N#CC1C(N)=NNC1c1ccc(-c2ccc(-c3nc4ccccc4o3)cc2)o1 (stereo unspecified) , please.
> 100 µM

Tell me the measured TGI of O=C(Nc1ccc(Br)cc1)c1cc(Br)cc(Br)c1O , please.
6.86 µM

Tell me the measured TGI of CCn1c2c(c3c(C(=O)OC)c(O)ccc31)C(=O)c1ccccc1C2=O , please.
27.9 µM

Tell me the measured TGI of CN(C)CCNc1cccc2sc3ccc(O)cc3c(=O)c12 , please.
2.47 µM

Tell me the measured TGI of O=C(N=Nc1c(O)[nH]c2ccccc12)c1ccccc1O , please.
> 100 µM

Tell me the measured TGI of CCOC(=O)/C=C(/CN1C(=O)c2ccccc2C1=O)c1ccccc1 , please.
> 100 µM

Tell me the measured TGI of COc1cccc(/C=C/C2=NN(c3cccc(S(=O)(=O)O)c3)C3(C2)SCC(=O)N3c2nc3ccccc3s2)c1 (stereo unspecified) , please.
> 100 µM

Tell me the measured TGI of Fc1cccc2nc(-c3ccccc3)cc(OCc3ccccc3)c12 , please.
> 100 µM

Tell me the measured TGI of CCOC(=O)/C(=C\c1ccc(CO)o1)P(=O)(OCC)OCC , please.
32.6 µM

Tell me the measured TGI of Cc1cc2ccccc2c[n+]1CC(=O)CC([O-])(C(F)(F)F)C(F)(F)F , please.
> 100 µM

Tell me the measured TGI of Cc1ccc(-c2cc3nc(-c4ccccc4)nc(C(Cl)Cl)n3n2)cc1 , please.
1.42 µM
